Hey, just so you know, these numbers are from ChEMBL document CHEMBL2146476.

- system.name: Glucocorticoid receptor (Homo sapiens) (UniProt P04150)
- test.description: Transactivation activity at GR-mediated modulation of MMTV promoter activity in human HeLa cells transfected with luciferase gene linked to MMTV promoter after 16 hrs by luciferase reporter gene assay relative to dexamethasone
- Assay type: cell-based
endpoint.name: Emax (%)

(P) C[C@]12Cc3cnn(-c4ccc(F)cc4)c3C=C1CC[C@@]2(O)CCc1cc(F)ccc1C(N)=O
(Q) CCCNC(=O)c1ccccc1CC[C@]1(O)CCC2=Cc3c(cnn3-c3ccc(F)cc3)C[C@@]21C
(R) CC(C)NC(=O)c1ccccc1CC[C@]1(O)CCC2=Cc3c(cnn3-c3ccc(F)cc3)C[C@@]21C
(S) C[C@]12Cc3cnn(-c4ccc(F)cc4)c3C=C1CC[C@@]2(O)CCc1cccc(F)c1C(=O)NC1(CO)CC1
Order them by Emax, ascending: the molecules above. To answer, write out the labels according to the requested order.
Q, R, P, S

(A) C=CCNC(=O)c1ccccc1CC[C@]1(O)CCC2=Cc3c(cnn3-c3ccc(F)cc3)C[C@@]21C
(B) CC(C)(C)NC(=O)c1ccccc1CC[C@]1(O)CCC2=Cc3c(cnn3-c3ccc(F)cc3)C[C@@]21C
Which of these two has the smaller recorded Emax: A or B ? Respond using the label that marks the chosen record.
B
(B: 14%, A: 21%)

(P) CNC(=O)c1ccccc1CC[C@]1(O)CCC2=Cc3c(cnn3-c3ccc(F)cc3)C[C@@]21C
(Q) C[C@]12Cc3cnn(-c4ccc(F)cc4)c3C=C1CC[C@@]2(O)CCc1c(F)cccc1C(N)=O
Given the two records P and Q , choose the one whose Emax value is lower. Give the label of your selection.
P

(P) C[C@]12Cc3cnn(-c4ccc(F)cc4)c3C=C1CC[C@@]2(O)CCc1cccc(F)c1C(N)=O
(Q) CCCNC(=O)c1c(F)cccc1CC[C@]1(O)CCC2=Cc3c(cnn3-c3ccc(F)cc3)C[C@@]21C
(R) CC1(NC(=O)c2c(F)cccc2CC[C@]2(O)CCC3=Cc4c(cnn4-c4ccc(F)cc4)C[C@@]32C)CC1
(S) CCNC(=O)c1ccccc1CC[C@]1(O)CCC2=Cc3c(cnn3-c3ccc(F)cc3)C(O)[C@@]21C (stereo partly drawn)
Ranking field: Emax; order: falling. API: response body holds the labels in the requested order.
P, R, Q, S
(P: 58%, R: 33%, Q: 17%, S: 6%)

(P) C=C(C)CNC(=O)c1c(F)cccc1CC[C@]1(O)CCC2=Cc3c(cnn3-c3ccc(F)cc3)C[C@@]21C
(Q) CCNC(=O)c1ccccc1CC[C@]1(O)CCC2=Cc3c(cnn3-c3ccc(F)cc3)C[C@@]21C
// select label with min value of measured Emax from [ P , Q ] Response format: the label of the selected entry.
P
(P: 16%, Q: 38%)

* * *

- system.name: Glucocorticoid receptor (Homo sapiens) (UniProt P04150)
- Sequence (whole entry): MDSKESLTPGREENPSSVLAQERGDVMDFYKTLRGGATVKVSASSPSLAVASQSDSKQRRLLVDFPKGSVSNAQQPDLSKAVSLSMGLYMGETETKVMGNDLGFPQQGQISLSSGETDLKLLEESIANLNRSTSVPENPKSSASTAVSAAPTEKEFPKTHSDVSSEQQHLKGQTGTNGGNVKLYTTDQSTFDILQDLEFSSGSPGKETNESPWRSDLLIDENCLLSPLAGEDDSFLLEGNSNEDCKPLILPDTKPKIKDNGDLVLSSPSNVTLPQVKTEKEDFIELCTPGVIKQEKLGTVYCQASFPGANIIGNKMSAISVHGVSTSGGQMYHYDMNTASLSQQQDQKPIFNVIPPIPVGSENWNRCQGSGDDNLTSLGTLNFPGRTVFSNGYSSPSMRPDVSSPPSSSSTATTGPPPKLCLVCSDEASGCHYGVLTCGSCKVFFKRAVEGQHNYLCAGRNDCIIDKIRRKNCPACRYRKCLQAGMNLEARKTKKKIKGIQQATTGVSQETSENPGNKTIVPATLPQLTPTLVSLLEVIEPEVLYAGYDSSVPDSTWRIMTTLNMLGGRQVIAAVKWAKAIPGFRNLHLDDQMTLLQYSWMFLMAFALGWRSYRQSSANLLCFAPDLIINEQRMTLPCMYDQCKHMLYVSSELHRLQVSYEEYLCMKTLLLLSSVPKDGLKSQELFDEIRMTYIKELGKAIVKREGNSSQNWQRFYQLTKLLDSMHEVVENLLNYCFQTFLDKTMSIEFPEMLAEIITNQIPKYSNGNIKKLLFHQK
- test.description: Transrepression activity at glucocorticoid receptor in human LPS and TPA-stimulated U937 cells assessed as effect on glucocorticoid-induced TNFalpha repression by beta lactamase reporter gene assay relative to dexamethasone
- Type: cell-based
- experimental.conditions: U-937
endpoint.name: Emax (%)

molecule: C=C(C)CNC(=O)c1c(F)cccc1CC[C@]1(O)CCC2=Cc3c(cnn3-c3ccc(F)cc3)C[C@@]21C
endpoint.name: Emax
reported.result: 67
//
molecule: CC1(NC(=O)c2c(F)cccc2CC[C@]2(O)CCC3=Cc4c(cnn4-c4ccc(F)cc4)C[C@@]32C)CC1
endpoint.name: Emax
reported.result: 81
//
molecule: CNC(=O)c1ccccc1CC[C@]1(O)CCC2=Cc3c(cnn3-c3ccc(F)cc3)C[C@@]21C
endpoint.name: Emax
reported.result: 50

(1) CCNC(=O)c1ccccc1CC[C@]1(O)CCC2=Cc3c(cnn3-c3ccc(F)cc3)C[C@@]21C
(2) C[C@@]12C(=Cc3c(cnn3-c3ccc(F)cc3)C1O)CC[C@@]2(O)CCc1ccc(F)cc1C(N)=O (stereo partly drawn)
Out of 1 and 2 , name the one with the higher Emax. Give the label under which the chosen entry appears.
1
(1: 65%, 2: 6%)

(I) CNC(=O)c1ccc(CC[C@]2(O)CCC3=Cc4c(cnn4-c4ccc(F)cc4)C[C@@]32C)cc1
(II) C[C@]12Cc3cnn(-c4ccc(F)cc4)c3C=C1CC[C@@]2(O)CCc1ccc(F)cc1C(N)=O
Hi! Which is lower in terms of Emax, the first one I or the second one II ? # respond with the chosen item's label
I
(I: 12%, II: 73%)
